Test system: OVCAR-3 ovarian
ASSAY_TEXT: NCI tumour cell line growth inhibition, 48 h
MEASURE_NAME: TGI (µM)

COMPOUND: C=C(C)[C@@H]1CC[C@]2(C(N)=O)CC[C@]3(C)[C@H](CC[C@@H]4[C@@]5(C)C/C(=C/c6cccnc6)C(=O)C(C)(C)[C@@H]5CC[C@]43C)[C@@H]12
MEASURE_NAME: TGI
MEASUREMENT_QUALIFIER: =
ENDPOINT_VALUE: 43.8

COMPOUND: O=S(=O)(Nc1nccs1)c1ccc(Nc2nc(-c3cccs3)nc3ccc(I)cc23)cc1
MEASURE_NAME: TGI
MEASUREMENT_QUALIFIER: =
ENDPOINT_VALUE: 39.9

COMPOUND: CC(C)NCCCNc1c2ccccc2nc2cccc([N+](=O)[O-])c12
MEASURE_NAME: TGI
MEASUREMENT_QUALIFIER: =
ENDPOINT_VALUE: 0.037

COMPOUND: CC1(C)OCC[C@@H]1[Si](C)(C)C
MEASURE_NAME: TGI
MEASUREMENT_QUALIFIER: >
ENDPOINT_VALUE: 100

COMPOUND: O=c1[nH]nc(-c2nn(-c3ccc(Cl)cc3)cc2O)o1
MEASURE_NAME: TGI
MEASUREMENT_QUALIFIER: =
ENDPOINT_VALUE: 12.5

COMPOUND: Cc1cc(O)c(C=NC(=S)c2ccncc2)c(=O)o1
MEASURE_NAME: TGI
MEASUREMENT_QUALIFIER: >
ENDPOINT_VALUE: 100

COMPOUND: O=C(O)C(CO)N=Cc1nc(-c2ccccc2)oc1O (centres undefined)
MEASURE_NAME: TGI
MEASUREMENT_QUALIFIER: >
ENDPOINT_VALUE: 100

COMPOUND: Cn1cc(NC(=O)c2cc(NC(=O)CCCCCCCCCC(=O)Nc3cc(C(=O)Nc4cc(C(=O)NCCC(=N)N)n(C)c4)n(C)c3)cn2C)cc1C(=O)NCCC(=N)N
MEASURE_NAME: TGI
MEASUREMENT_QUALIFIER: =
ENDPOINT_VALUE: 35.1

COMPOUND: O=c1cc(-c2ccccc2)[nH]c2ccc(N3CCCC3)cc12
MEASURE_NAME: TGI
MEASUREMENT_QUALIFIER: =
ENDPOINT_VALUE: 26.1

----------
Test system: HS 578T breast
ASSAY_TEXT: NCI tumour cell line growth inhibition, 48 h; in the data active = GI50 below about 0.43 µM; inactive = the rest
Outcome codes: True (active), False (inactive)

MOLECULE: O=S(=O)(Nc1nccs1)c1ccc(Nc2nc(-c3cccs3)nc3ccc(I)cc23)cc1
CLASS_ASSIGNMENT: False
--
MOLECULE: COc1ccc(/C=C(/C(=O)N2CCCCC2)c2cc(OC)c(OC)c(OC)c2)cc1
CLASS_ASSIGNMENT: False
--
MOLECULE: CCNCCNc1cc(-c2ccc(Cl)c(Cl)c2)c(C#N)c2nc3ccccc3n12
CLASS_ASSIGNMENT: False
--
MOLECULE: COc1cc(-c2cc(-c3nc4ccc(F)cc4[nH]3)[nH]n2)cc(OC)c1OC
CLASS_ASSIGNMENT: False
--
MOLECULE: COc1ccc2c(c1OC)C(=O)OC2C1c2c(c(N)c3c(c2OC)OCO3)CCN1C (stereo not given)
CLASS_ASSIGNMENT: False
--
MOLECULE: CCNC(=O)N1CCc2c(Cl)c3c(c(OC)c2[C@@H]1[C@H]1OCc2c1ccc(OC)c2OC)OCCO3
CLASS_ASSIGNMENT: False
--
MOLECULE: CCCCCN1C(=O)/C(=c2\sc3n(c2=O)C2C(NN=3)N(CC)C(=O)N2CC)c2ccccc21 (stereo not given)
CLASS_ASSIGNMENT: False
--
MOLECULE: CCOc1ccccc1C(=O)/C=C/c1cc2ccccc2[nH]c1=O
CLASS_ASSIGNMENT: True
--
MOLECULE: COc1ccc(CCc2nc3cc(-c4c(C)noc4C)ccc3n2CCN2CCOCC2)cc1
CLASS_ASSIGNMENT: False
--
MOLECULE: Nc1c(C(=O)N/N=C/c2ccco2)cnn1-c1ccnc2c(C(F)(F)F)cccc12
CLASS_ASSIGNMENT: False
